As shown below, each of these compounds has a reported pIC50 value.
Target: mouse VISTA (mVISTA) (Mus musculus)
Construct: expressed in transfected cells; host or cells: Human embryonic kidney 293T cells
Sequence (Q9D659 33-308): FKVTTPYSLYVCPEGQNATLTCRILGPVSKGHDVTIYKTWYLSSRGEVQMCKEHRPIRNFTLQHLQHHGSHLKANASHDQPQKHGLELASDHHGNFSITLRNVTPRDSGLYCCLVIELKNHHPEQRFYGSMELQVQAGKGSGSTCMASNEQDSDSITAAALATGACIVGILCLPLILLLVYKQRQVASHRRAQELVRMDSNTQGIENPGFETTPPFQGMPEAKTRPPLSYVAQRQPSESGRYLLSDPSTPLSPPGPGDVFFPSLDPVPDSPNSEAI
Assay: Cell-Based Binding High-Content Assay For mVISTA (HC CBA mVISTA)
Details: read-out: HC CBA mVISTA IC50
From the text: Cell-Based Binding High-Content Assay For mVISTA Human embryonic kidney 293T cells (293T) expressing mouse VISTA (mVISTA) were used for the assessment of compounds competing with the binding of a biotinylated peptide. […] The plates were washed 3 times in dPBS, sealed, and read on a CellInsight NXT High Content Screening Platform IC903000 (Thermo Scientific). […]
Positions of bridges follow the written chain, without caps; N, C: chain ends. Non-standard residues stand in square brackets, D forms with d. Residues, ends and D or L forms follow the SMILES beside them. ξ: configuration not given here. Cit = NC(=O)NCCC[C@H](N)C(=O)O; Ile(3ξ) = CCC(C)[C@H](N)C(=O)O; NMeL = CN[C@@H](CC(C)C)C(=O)O; Ahp(2) = CCCCC[C@H](N)C(=O)O; NMeNle = CCCC[C@H](NC)C(=O)O; NHexGly = CCCCCCNCC(=O)O; NMeA = CN[C@@H](C)C(=O)O; Nle = CCCC[C@H](N)C(=O)O
// returns pIC50 (minus log10 of molar concentration), number only

Q) Determine reported pIC50 for CCCCCCN1CC(=O)N[C@@H](Cc2ccc(O)cc2)C(=O)N[C@@H](CCCC)C(=O)N[C@@H](CC(N)=O)C(=O)N[C@@H](CCCNC(=N)N)C(=O)N(C)[C@@H](CC(C)C)C(=O)N[C@@H](CCCCC)C(=O)N2CCC[C@H]2C(=O)N[C@@H](C(C)C)C(=O)N[C@@H](CC(=O)O)C(=O)N[C@H](C(=O)N[C@@H](CO)C(=O)O)CSCC(=O)N[C@@H](Cc2ccccc2)C(=O)N[C@@H](Cc2c[nH]c3ccccc23)C(=O)N[C@@H](CC(=O)O)C1=O [Example 1370] ({CH2CO}-FWD[NHexGly]Y[Nle]NR[NMeL][Ahp(2)]PVDCS-OH; thioether N-14) ; test system: mouse VISTA (mVISTA) (Mus musculus).
A) 7.73

Q) Give pIC50 for this entry on mouse VISTA (mVISTA) (Mus musculus): CCCCCCN1CC(=O)N[C@@H](Cc2ccc(O)cc2)C(=O)N[C@@H](CCCC)C(=O)N[C@@H](CC(N)=O)C(=O)N[C@@H](CCCNC(N)=O)C(=O)N(C)[C@@H](CCCC)C(=O)N[C@@H](CCCCC)C(=O)N2CCC[C@H]2C(=O)N[C@@H](C(C)CC)C(=O)N[C@@H](CO)C(=O)N[C@H](C(=O)NCC(N)=O)CSCC(=O)N[C@@H](Cc2ccccc2)C(=O)N[C@@H](Cc2c[nH]c3ccccc23)C(=O)N[C@@H](CC(=O)O)C1=O (stereo partly drawn) [Example 1388] ({CH2CO}-FWD[NHexGly]Y[Nle]N[Cit][NMeNle][Ahp(2)]P[Ile(3ξ)]SCG-NH2; thioether N-14)
A) 7.79

Q) Please look at CCCCCCN1CC(=O)N[C@@H](Cc2ccc(O)cc2)C(=O)N[C@@H](CCCC)C(=O)N[C@@H](CC(N)=O)C(=O)N[C@@H](CCCNC(N)=O)C(=O)N(C)[C@@H](CCCC)C(=O)N[C@@H](CCCCC)C(=O)N(C)[C@@H](C)C(=O)N[C@@H](C(C)C)C(=O)N[C@@H](CO)C(=O)N[C@H](C(=O)NCC(N)=O)CSCC(=O)N[C@@H](Cc2ccccc2)C(=O)N[C@@H](Cc2c[nH]c3ccccc23)C(=O)N[C@@H](CC(=O)O)C1=O [compound 1144] ({CH2CO}-FWD[NHexGly]Y[Nle]N[Cit][NMeNle][Ahp(2)][NMeA]VSCG-NH2; thioether N-14) and tell me its recorded pIC50 on mouse VISTA (mVISTA) (Mus musculus).
A) 7.80
